Attribution: patent US8247211B2

Catalogue of MIC Staphylococcus aureus (ATCC 29213) values
# Tested on: Staphylococcus sp.
# Protocol Summary: In vitro antibacterial evaluation: minimum inhibitory concentration (MIC), broth dilution method
# Type: cell-based
# Assay Context: broth dilution, 18 hours at 35° C.
Supply the numeric figure in µg/mL, leaving out any unit text.

{"Molecule": "CCCCCCCN1CC(C(O)C2NC(=O)C(C(O)C3CNC(=N)N3)NC(=O)C(Cc3ccc(OC4OC(CO)C(OC5OC6COC7(OC6C(O)C5O)C5CC6CC(C5)CC7C6)C(O)C4O)cc3)NC(=O)C(C(C)c3ccccc3)NC(=O)CNC(=O)C(CO)NC2=O)N(C2OC(CO)C(O)C(O)C2O)C1=N (stereo not drawn)", "Reported Value": 2}
{"Molecule": "CC(c1ccccc1)C1NC(=O)CNC(=O)C(CO)NC(=O)C(C(O)C2CNC(=N)N2C2OC(CO)C(O)C(O)C2O)NC(=O)C(C(O)C2CNC(=N)N2)NC(=O)C(Cc2ccc(OC3OC(COC(=O)Cc4ccccc4)C(OC4OC(CO)C(O)C(O)C4O)C(O)C3O)cc2)NC1=O (stereo not drawn) [Example 98b]", "Reported Value": 16}

--- query ---
QUERY: Please give the measured MIC Staphylococcus aureus (ATCC 29213) for this molecule: CC(c1ccccc1)C1NC(=O)CNC(=O)C(CO)NC(=O)C(C(O)C2CNC(=N)N2C2OC(CO)C(O)C(O)C2O)NC(=O)C(C(O)C2CNC(=N)N2)NC(=O)C(Cc2ccc(OC3OC(CO)C(OC4OC(COC(=O)Cc5ccccc5)C(O)C(O)C4O)C(O)C3O)cc2)NC1=O (stereo not drawn) [Example 98c]
RESULT: 2

---

Catalogue of MIC Enterococcus faecalis (GC 2691) values
# System: Enterococcus sp.
# Protocol Summary: In vitro antibacterial evaluation: minimum inhibitory concentration (MIC), broth dilution method
# Assay type: cell-based
# Assay Context: broth dilution, inoculum 5×10^5 CFU/mL, 18 hours at 35° C.
# Description: […]
Supply the numeric figure in mg/L, leaving out any unit text.

Recorded results for 4 compounds are shown here.
{"Compound": "CC(c1ccccc1)C1NC(=O)CNC(=O)C(CO)NC(=O)C(C(O)C2CNC(=N)N2C2OC(CO)C(O)C(O)C2O)NC(=O)C(C(O)C2CNC(=N)N2)NC(=O)C(Cc2ccc(OC3OC(CO)C(OC4OC(CO)C(OCC=C(c5ccccc5)c5ccccc5)C(O)C4O)C(O)C3O)cc2)NC1=O (stereo not shown) [Example 241a]", "Study Target": "Enterococcus sp.", "Unit Abbrev": "mg/L", "MIC Enterococcus faecalis (GC 2691)": 2}
{"Compound": "CC(c1ccccc1)C1NC(=O)CNC(=O)C(CO)NC(=O)C(C(O)C2CNC(=N)N2C2OC(CO)C(O)C(O)C2O)NC(=O)C(C(O)C2CNC(=N)N2)NC(=O)C(Cc2ccc(OC3OC(CO)C(OC4OC5COC6(CCCCC6(C)C)OC5C(O)C4O)C(O)C3O)cc2)NC1=O (stereo not shown)", "Study Target": "Enterococcus sp.", "Unit Abbrev": "mg/L", "MIC Enterococcus faecalis (GC 2691)": 4}
{"Compound": "CC(c1ccccc1)C1NC(=O)CNC(=O)C(CO)NC(=O)C(CC2CNC(=N)N2C2OC(CO)C(O)C(O)C2O)NC(=O)C(CC2CNC(=N)N2)NC(=O)C(Cc2ccc(OC3OC(CO)C(OC4OC5COC6(OC5C(O)C4O)C4CC5CC(C4)CC6C5)C(O)C3O)cc2)NC1=O (stereo not shown)", "Study Target": "Enterococcus sp.", "Unit Abbrev": "mg/L", "MIC Enterococcus faecalis (GC 2691)": 8}
{"Compound": "CCOc1cc(C2OCC3OC(OC4C(CO)OC(Oc5ccc(CC6NC(=O)C(C(C)c7ccccc7)NC(=O)CNC(=O)C(CO)NC(=O)C(C(O)C7CNC(=N)N7C7OC(CO)C(O)C(O)C7O)NC(=O)C(C(O)C7CNC(=N)N7)NC6=O)cc5)C(O)C4O)C(O)C(O)C3O2)ccc1[N+](=O)[O-] (stereo not shown)", "Study Target": "Enterococcus sp.", "Unit Abbrev": "mg/L", "MIC Enterococcus faecalis (GC 2691)": 32}

--- query ---
QUERY: Please give the measured MIC Enterococcus faecalis (GC 2691) for this compound: CC(c1ccccc1)C1NC(=O)CNC(=O)C(CO)NC(=O)C(CC2CNC(=N)N2C2OC(CO)C(O)C(O)C2O)NC(=O)C(CC2CNC(=N)N2)NC(=O)C(Cc2ccc(OC3OC(CO)C(OC4OC5COC(c6ccc(OCc7ccccc7)cc6)OC5C(O)C4O)C(O)C3O)cc2)NC1=O (stereo not shown)
RESULT: 8
